Hi there, I'd appreciate the recorded TGI for every entry that follows.
System: COLO 205 colon
PROTOCOL DESCRIPTION: NCI tumour cell line growth inhibition, 48 h
Field format: number, assumed µM, no unit text.

Hello, please tell me recorded TGI for this one: COc1cc(CNc2nc3ccccc3n2Cc2ccccc2)cc(CN2CCOCC2)c1O
40.1

Kindly indicate its recorded TGI. Item: COc1cc(/C=C2\CCCC3C2=Nc2ccccc2NC3c2cc(OC)c(OC)c(OC)c2)cc(OC)c1OC (stereo not drawn)
6.29

// fetch TGI given entry NC(=O)c1ccc2nc(-c3ccc(C4(N)CCC4)cc3)c(-c3ccccc3)n2n1
19

Specify TGI for COc1cc(/C=C/C(=O)NC[C@]2(O)CCC3C4CCc5cc(O)ccc5C4CCC32C)ccc1O (stereo partly drawn) and stop.
64.5

Identify measured TGI corresponding to CCN(CC)C(=S)SC(=S)N(CC)CC
45
